# System: SW-620 colon
# Test Description: NCI tumour cell line growth inhibition, 48 h
Metric: TGI (µM)

entry_smiles=O=C(OCc1ccc([N+](=O)[O-])cc1)N1c2ccccc2[C@@]23O[C@]24CCC[C@H]3C#C/C=C\C#C[C@H]14 metric=TGI relational_operator=> number=100
entry_smiles=COc1ccc(Cn2cc3c(c2-c2ccccc2)CCc2cnoc2-3)cc1OC metric=TGI relational_operator=> number=100
entry_smiles=O=C1C=CC(=O)c2c1ccc1c3ccccc3n(-c3ccccc3)c21 metric=TGI relational_operator== number=7.31
entry_smiles=Cn1c(=O)c2c(nc3sc4c(n32)C(=O)c2c(O)ccc(O)c2C4=O)n(C)c1=O metric=TGI relational_operator== number=1.78
entry_smiles=O=C(O)c1nc2ccc(C(F)(F)F)cc2nc1NCc1ccc(Cl)c(Cl)c1 metric=TGI relational_operator== number=47.2
